Assay: Stability of compound in PBS at pH 7.4 assessed as half-life in presence of GSH incubated for 90 mins by UPLC-HRMS analysis
Type: physicochemical
Conditions: PBS with GSH
EXPERIMENTAL_READOUT: half-life

Please look up its half-life: C#CP(=O)(Nc1cc(C(F)(F)F)cc2c(=O)nc(N3CCC4(CC3)OC[C@H](C)O4)sc12)OCC (stereo partly specified)
10.5 min

* * *

Record form. Attribute: MIC. Fill in for each entry.
Tested on: Mycolicibacterium smegmatis
Assay: Antimycobacterial activity against Mycobacterium smegmatis JMRC:STH:00056 assessed as inhibition of bacterial growth incubated for 42 hrs by broth microdilution method
Assay type: functional
The reply should contain only the number, in µM.

Find the measured MIC: item C[C@H]1COC2(CCN(c3nc(=O)c4cc(C(F)(F)F)cc([N+](=O)[O-])c4s3)CC2)O1 , target or system Mycolicibacterium smegmatis.
0.058

Param item: C=C(C)C(=O)Nc1cc(C(F)(F)F)cc2c(=O)nc(N3CCC4(CC3)OC[C@H](C)O4)sc12
106

Same again, this time with C[C@H]1COC2(CCN(c3nc(=O)c4cc(C(F)(F)F)cc(N5CCC5=O)c4s3)CC2)O1
110

Proceed to C=CP(=O)(Nc1cc(C(F)(F)F)cc2c(=O)nc(N3CCC4(CC3)OC[C@H](C)O4)sc12)OCC (stereo not given in full)
24.1

Entry C=CC(=O)Nc1cc(C(F)(F)F)cc2c(=O)nc(N3CCC4(CC3)OC[C@H](C)O4)sc12 please
110

# credit: ChEMBL document CHEMBL6074635
